Data provenance is PubChem BioAssay (NCI).

system: T-47D breast; test: NCI-60 one-dose screen, 48 h (100 = growth as untreated, 0 = no growth, -100 = all killed); details: 10 µM
The panel holds about 83,000 compounds, 20% with a hit somewhere; the sample as a whole holds those more often. Calls of active or inactive are those of the source. How the source made its calls: active means growth percent below 10; inactive means the rest.
PARAMETER MEASURED: growth

Worked cases, growth given:
• N#Cc1ccc(-c2nn(-c3ccc(C(=O)O)cc3)cc2CNc2cccc(Br)c2)cc1 = 35.4% (inactive)
• COc1ccc(OC)c(/C=N/NC(=O)c2ccc3nc(-c4ccc(Cl)cc4)[nH]c3c2)c1 = 38.2% (inactive)
• O=C(c1ccc(O)cc1)C1[C@H](c2ccc(Br)cc2)[C@@H](c2ccccc2)NC12C(=O)Nc1ccc(Br)cc12 (stereo not given in full) = 22.2% (inactive)

Each molecule below has a recorded value; state its growth.
1. CN1CCN(Cc2ccc(C(=O)Nc3cccc(Nc4ccc5c(O)cccc5n4)c3)cc2C(F)(F)F)CC1
2. CC[C@@]1(O)C(=O)OCc2c1cc1n(c2=O)Cc2c-1nc1cc(F)c(C)c3c1c2[C@@H](N)CC3
3. C=C1CCC2C3(C)COC(c4c(F)cccc4F)OC3CCC2(C)C1CC(O)C1=CCOC1=O (stereo not given)
4. Cc1cc(C(F)(F)F)ccc1C(=O)Nc1sc2c(c1C#N)CCC(=O)C2
5. Cc1cc(C)nc(NS(=O)(=O)c2ccc(N/C(N)=N/c3nccc(-c4ccccc4)n3)cc2)n1

1. -36.8% (active)
2. -3.93% (active)
3. 47.6% (inactive)
4. -34% (active)
5. 25.1% (inactive)

Each molecule below has a recorded value; state its growth.
1. N#Cc1ccc(-c2nn(-c3ccc(C(=O)O)cc3)cc2CNc2cc(Cl)cc(Cl)c2)cc1
2. O/N=C(\CSc1nnc(-c2c[nH]c3ccccc23)n1-c1ccccc1)c1ccc(Br)cc1
3. O=C(CNc1nc(-c2ccccc2)cs1)Nc1ccc([N+](=O)[O-])cc1Cl
4. CN1C(=O)N(C)C2SC(N/N=C/c3ccccc3)=NC21 (stereo not given)
5. CC(=O)c1cc(C(=O)c2ccc3c(c2)NC(=O)CO3)n2ccc3ccccc3c12
6. NC(=Nc1ccc(OCCCCCCCCn2ccnn2)cc1)c1ccccc1
7. O=C(c1ccc(-n2c(=O)[nH]c3ccccc3c2=O)cc1)N1CCOCC1
8. COc1ccc(C2NC(=S)NC(C)=C2C(=O)OC(C)C)cc1OC (stereo not given)

["25.9% (inactive)", "5.96% (active)", "12.5% (inactive)", "69.5% (inactive)", "75.3% (inactive)", "40% (inactive)", "99.7% (inactive)", "91.1% (inactive)"]
